targetOrTestSystem: human Dopamine Transporter (DAT), SLC6A3 (gene 6531)
measurementProtocol: NVS_TR_hDAT: NovaScreen (NVS) Transporter Assay for human Dopamine Transporter (DAT) (AID 2283374);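 note: activity means loss of bound radioligand signal relative to DMSO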
Records with an inconclusive call do not appear. Calls of active or inactive are those of the source. Rule for the calls: active = hit-call score of the fitted dose curve at least 0.9, where 1 is the maximum; inconclusive = response in the unintended direction; inactive = score below 0.9.
Returns: one label drawn from 1 for active, 0 for inactive

Take a look at these entries with their results.
Oc1ccc(Nc2ccccc2)cc1 1
Nc1ccc(Oc2cccc(Oc3ccc(N)cc3)c2)cc1 1
CCCCCCCCCCCCCCCC[N+](C)(C)Cc1ccccc1 1

# input for lookup
q: Record lookup: outcome of this test for CCCCNc1ccccc1 ?
a: 0

---

Read-out: CD40, CD40 (gene 958)
measurementProtocol: BSK_IMphg_CD40: BioMAP Diversity Plus: IMphg Assay for CD40 Biomarker Activity (AID 2284288)
recordedConditions: primary human endothelial cells with macrophages
Active and inactive are the calls of the source. How the source made its calls: active means hit-call score of the fitted dose curve at least 0.9, where 1 is the maximum; inactive means score below 0.9.
quantityName: outcome

Recorded outcome, per entry:
molecule	outcome
O=C(O)C(F)(F)C(F)(F)C(F)F	inactive
FC(F)(F)C(F)(F)C(F)(F)C(F)(F)C(F)(F)C(F)(F)C(F)(F)I	inactive
FC(F)(F)C(F)(F)C(F)(F)CI	inactive
O=C(O)C(F)(F)C(F)(F)C(F)(F)C(F)(F)C(F)(F)C(F)(F)C(F)(F)C(F)(F)C(F)(F)C(F)(F)C(F)(F)C(F)(F)C(F)(F)F	inactive
O=C(O)C(F)(F)C(F)(F)F	inactive
OCC(F)(F)C(F)(F)C(F)(F)F	inactive
FC(F)(F)C(F)(F)C(F)(F)C(F)(F)C(F)(F)C(F)(F)CC1CO1 (stereo not drawn)	inactive
O=C(O)C(F)(F)C(F)(F)C(F)(F)C(F)(F)C(F)(F)C(F)(F)C(F)(F)C(F)(F)C(F)(F)C(F)F	inactive
FC(F)(F)C(F)(F)CNCC(F)(F)C(F)(F)F	inactive
O=C(O)C=C(C(F)(F)F)C(F)(F)F	inactive

// recorded outcome for OCCCC(F)(F)C(F)(F)C(F)(F)F : inactive

Data point: OCC(F)(F)C(F)(F)C(F)(F)C(F)(F)C(F)(F)C(F)(F)F ; outcome = inactive

O=S(=O)(O)C(F)(F)C(F)(F)C(F)(F)C(F)(F)C(F)(F)C(F)(F)C(F)(F)F yielded outcome of inactive

Lab note: FC(F)(F)C(F)(F)C(F)(F)C(F)(F)CCI gave outcome of inactive

Entry N=C(N)C(F)(F)C(F)(F)C(F)(F)C(F)(F)C(F)(F)C(F)(F)C(F)(F)F ; outcome = inactive

---

measurementProtocol: BSK_4H_Eotaxin3: BioMAP Diversity Plus: 4H Assay for Eotaxin 3 Biomarker Activity (AID 2283000)
recordedConditions: primary human endothelial cells (HUVEC); actives raise or lower the signal
Calls of active or inactive are those of the source. How the source made its calls: active means hit-call score of the fitted dose curve at least 0.9, where 1 is the maximum; inactive means score below 0.9.
quantityName: AC50

See these solved cases before continuing.
CCO[Si](CCC(F)(F)C(F)(F)C(F)(F)C(F)(F)C(F)(F)C(F)(F)F)(OCC)OCC inactive
CC(=O)Nc1ccc(N=Nc2cc(C)ccc2O)cc1 20 µM (active)
C=C(C)C(=O)OCC(F)(F)C(F)(F)C(F)(F)C(F)(F)C(F)(F)C(F)(F)C(F)(F)F inactive
Nc1ccc([N+](=O)[O-])cc1O inactive
O=C(O)C=C(C(F)(F)F)C(F)(F)F inactive

Now consider the entry below.
For CCCCOCCOCCOC(=O)CCCCC(=O)OCCOCCOCCCC the compound record lists AC50 as inactive
